Here the recorded IC50 is given for each entry.
Molecular target: T1, recombinant biotinylated human PAR2 extracellular domain (residues 1-75), N-terminal AviTag, C-terminal Flag … (human, UniProt P55085 26-75, biotin on the AviTag (enzymatic biotinylation))
T1 construct: also called Bio-human-PAR2 ECD; human PAR2 ECD; not shown: N-terminal AviTag (Avidity LLC); C-terminal Flag and poly Histidine tags
T1 sequence (P55085 26-75): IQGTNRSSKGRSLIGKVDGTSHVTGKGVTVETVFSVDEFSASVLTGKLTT
Test: HTRF competition with Par0067 IgG, pH 6.0, scFv
Please state the number and follow it with the unit.

Binder: PaB670106 scFv (scFv, V domains shown, purified scFv; also called ZZ1RD0-G02) VH: EVQLLESGGGLVQPGGSLRLSCAASGFTFSSYAMNWVRQAPGKGLEWVSTISYSGSLISYADSVKGRFTISRDNSKNTLYLQMNSLRAEDTAVYYCARINNDPMDVWGQGTLVTVSS VL: SIELTQPPSVSVSPGQTASITCSGDNLGKKYVQWYQQKPGQSPVLVIYDDSNRPSGIPERFSGSNSGNTATLTISGTQAMDEADYYCHTWDHNPHHHHTNHFGGGTKLTVL
IC50: 1190 nM

Could you now look at the following binder, please?
Problem: Tell us which IC50 value is on record for PaB670045 scFv (scFv, V domains shown, purified scFv; also called ZZ1KX3-F01) VH: EVQLLESGGGLVQPGGSLRLSCAASGFTFSSYAMNWVRQAPGKGLEWVSTISYSGSLISYADSVKGRFTISRDNSKNTLYLQMNSLRAEDTAVYYCARIHHDPMDVWGQGTLVTVSS VL: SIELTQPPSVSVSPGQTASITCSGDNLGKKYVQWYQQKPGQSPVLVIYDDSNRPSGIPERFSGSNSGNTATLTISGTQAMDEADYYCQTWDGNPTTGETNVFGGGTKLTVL
Result: 72.5 nM
